Source listed as PubChem BioAssay (EPA / NIEHS).

Read-out: Cyclin D1 (CCND1), CCND1 (gene 595)
run-description: LTEA_HepaRG_CCND1: Life Technologies and Expression Analysis (LTEA) Assay for Cyclin D1 (CCND1) using HepaRG (AID 2283451)
cond: mRNA level, 48 h; actives raise or lower the signal
Active and inactive are the calls of the source. How the source made its calls: active means hit-call score of the fitted dose curve at least 0.9, where 1 is the maximum; inactive means score below 0.9.
The reply should be one of these categories: active, inactive

The examples below pair each entry with its known result.
>  <molecule>
CCCCNC(=O)n1c(NC(=O)OC)nc2ccccc21

>  <class-assignment>
inactive

$$$$
>  <molecule>
CCNc1nc(Cl)nc(NC(C)C)n1

>  <class-assignment>
inactive

$$$$
>  <molecule>
CCc1nn(C)c(C(=O)NCc2ccc(C(C)(C)C)cc2)c1Cl

>  <class-assignment>
active

$$$$

QUERY: Please state the recorded outcome for this molecule: CCOc1cc(Oc2ccc(C(F)(F)F)cc2Cl)ccc1[N+](=O)[O-]
RESULT: inactive

QUERY: Please state the recorded outcome for this molecule: COP(=S)(OC)Oc1nc(Cl)c(Cl)cc1Cl
RESULT: inactive

QUERY: Please state the recorded outcome for this molecule: CCNc1nc(Cl)nc(NCC)n1
RESULT: inactive

QUERY: Please state the recorded outcome for this molecule: CC(C)Oc1cc(-n2nc(C(C)(C)C)oc2=O)c(Cl)cc1Cl
RESULT: inactive

QUERY: Please state the recorded outcome for this molecule: Cc1cc(Cl)ccc1OCC(=O)O
RESULT: inactive

----------
assay-target: Cellular tumor antigen p53 (Homo sapiens)
run-description: TOX21_p53_BLA_p2_ratio: Tox21 HCT-116 p53 Agonism Beta-lactamase Assay, Ratio, Phase 2 (AID 2283592)
Inconclusive results are not listed. Active and inactive are the calls of the source. Rule for the calls: active = hit-call score of the fitted dose curve at least 0.9, where 1 is the maximum; inconclusive = response in the unintended direction; inactive = score below 0.9.
The reply should be one of these categories: active, inactive

The examples below pair each entry with its known result.
>  <compound>
O=C(O)c1nc(Cl)ccc1Cl

>  <class-assignment>
inactive

$$$$
>  <compound>
COC(=O)N(OC)c1ccccc1COc1ccn(-c2ccc(Cl)cc2)n1

>  <class-assignment>
active

$$$$
>  <compound>
N#Cc1nn(-c2c(Cl)cc(C(F)(F)F)cc2Cl)c(N)c1S(=O)C(F)(F)F (stereo unspecified)

>  <class-assignment>
inactive

$$$$
>  <compound>
Oc1ccccc1-c1ccccc1

>  <class-assignment>
inactive

$$$$
>  <compound>
CCCC1COC(Cn2cncn2)(c2ccc(Cl)cc2Cl)O1 (stereo unspecified)

>  <class-assignment>
inactive

$$$$

QUERY: Please state the recorded outcome for this compound: Cc1cc(Cl)ccc1OCC(=O)O
RESULT: inactive

----------
Read-out: cysteine-aspartic acid protease (CASP8), CASP8 (gene 841)
run-description: LTEA_HepaRG_CASP8: Life Technologies and Expression Analysis (LTEA) Assay for cysteine-aspartic acid protease (CASP8) using HepaRG (AID 2283480)
cond: mRNA level, 48 h; actives raise or lower the signal
Calls of active or inactive are those of the source. Rule for the calls: active = hit-call score of the fitted dose curve at least 0.9, where 1 is the maximum; inactive = score below 0.9.
The reply should be one of these categories: active, inactive

The examples below pair each entry with its known result.
>  <compound>
O=C(O)c1nc(Cl)ccc1Cl

>  <class-assignment>
inactive

$$$$
>  <compound>
CC(C)C1(C)N=C(c2nc3ccccc3cc2C(=O)O)NC1=O (stereo unspecified)

>  <class-assignment>
inactive

$$$$
>  <compound>
N#Cc1nn(-c2c(Cl)cc(C(F)(F)F)cc2Cl)c(N)c1S(=O)C(F)(F)F (stereo unspecified)

>  <class-assignment>
inactive

$$$$
>  <compound>
Fc1ccc(Oc2ccnc3cc(Cl)cc(Cl)c23)cc1

>  <class-assignment>
inactive

$$$$
>  <compound>
Cc1cc(Cl)ccc1OCC(=O)O

>  <class-assignment>
inactive

$$$$
>  <compound>
CCNc1nc(Cl)nc(NCC)n1

>  <class-assignment>
inactive

$$$$
>  <compound>
N#Cc1cc(Br)c(O)c(Br)c1

>  <class-assignment>
active

$$$$
>  <compound>
CO/C=C(/C(=O)OC)c1ccccc1Oc1cc(Oc2ccccc2C#N)ncn1

>  <class-assignment>
inactive

$$$$
>  <compound>
CCCCNC(=O)n1c(NC(=O)OC)nc2ccccc21

>  <class-assignment>
inactive

$$$$
>  <compound>
CNC(=S)S

>  <class-assignment>
inactive

$$$$

Now for another entry.
QUERY: Please state the recorded outcome for this compound: OC(c1ccc(Cl)cc1)(c1cncnc1)c1ccccc1Cl (stereo unspecified)
RESULT: active
